A collection of compounds and their measured MIC50
- Test system: Aspergillus fumigatus ATCC 46645
- TEST SUMMARY: MIC by broth dilution, A. fumigatus ATCC 46645
- RECORDED CONDITIONS: Aspergillus fumigatus, ATCC46645, 48 h, pH 7

COMPOUND	MIC50
CCCCc1cc(C#N)c(NCC(O)(Cn2cncn2)c2ccc(F)cc2F)s1 (racemic) [Compound 2-03]	> 4 µg/mL
CCCCCc1cc(C#N)c(NC[C@](O)(Cn2cncn2)c2ccc(F)cc2F)s1 [Compound 1a-04]	> 8 µg/mL
Cc1cc(C#N)c(NC[C@](O)(Cn2cncn2)c2ccc(F)cc2F)s1 [Compound 1a-01]	> 64 µg/mL
CCCCc1cc(C#N)c(NC[C@](O)(Cn2cncn2)c2ccc(F)cc2F)s1 [Compound 1a-03]	> 4 µg/mL
Cc1cc(C#N)c(NCC(O)(Cn2cncn2)c2ccc(F)cc2F)s1 (racemic) [Compound 2-01]	> 64 µg/mL

====

- System: Aspergillus fumigatus ATCC 46645
A collection of compounds and their measured MIC50

COMPOUND	MIC50
OC(Cn1cncn1)(Cn1cncn1)c1ccc(F)cc1F	> 128 µg/mL
CCCc1cc(C#N)c(NC[C@](O)(Cn2cncn2)c2ccc(F)cc2F)s1	> 16 µg/mL
CCCc1cc(C#N)c(NCC(O)(Cn2cncn2)c2ccc(F)cc2F)s1 (racemic)	> 16 µg/mL
CCCc1cc(C#N)c(NC[C@@](O)(Cn2cncn2)c2ccc(F)cc2F)s1	8 µg/mL

====

- System: C. albicans ATCC 2091

COMPOUND	MEASURED TARGET	MIC50
CCCc1cc(C#N)c(NC[C@](O)(Cn2cncn2)c2ccc(F)cc2F)s1 [Compound 1a-02]	C. albicans ATCC 2091	0.12 µg/mL
CCCCCc1cc(C#N)c(NC[C@](O)(Cn2cncn2)c2ccc(F)cc2F)s1 [Compound 1a-04]	C. albicans ATCC 2091	0.5 µg/mL
CCCCc1cc(C#N)c(NC[C@](O)(Cn2cncn2)c2ccc(F)cc2F)s1 [Compound 1a-03]	C. albicans ATCC 2091	0.12 µg/mL
OC(Cn1cncn1)(Cn1cncn1)c1ccc(F)cc1F [FLU, Fluconazole]	C. albicans ATCC 2091	0.5 µg/mL

====

A collection of compounds and their measured MIC50
- System: C. albicans ATCC 2091

COMPOUND	MIC50
CCCc1cc(C#N)c(NC[C@@](O)(Cn2cncn2)c2ccc(F)cc2F)s1 [Compound 1b-02]	1 µg/mL
Cc1cc(C#N)c(NCC(O)(Cn2cncn2)c2ccc(F)cc2F)s1 (racemic) [Compound 2-01]	0.5 µg/mL
CCCc1cc(C#N)c(NCC(O)(Cn2cncn2)c2ccc(F)cc2F)s1 (racemic) [Compound 2-02]	0.12 µg/mL
Cc1cc(C#N)c(NC[C@](O)(Cn2cncn2)c2ccc(F)cc2F)s1 [Compound 1a-01]	0.25 µg/mL
CCCCc1cc(C#N)c(NCC(O)(Cn2cncn2)c2ccc(F)cc2F)s1 (racemic) [Compound 2-03]	0.25 µg/mL

====

- Tested on: C. Krusei ATCC 6258
OBSERVED PROPERTY: MIC50 (µg/mL)

COMPOUND	OBSERVED PROPERTY	CENSOR SYMBOL	REPORTED RESULT
Cc1cc(C#N)c(NC[C@](O)(Cn2cncn2)c2ccc(F)cc2F)s1 [Compound 1a-01]	MIC50	=	32
OC(Cn1cncn1)(Cn1cncn1)c1ccc(F)cc1F [FLU, Fluconazole]	MIC50	=	64
CCCc1cc(C#N)c(NCC(O)(Cn2cncn2)c2ccc(F)cc2F)s1 (racemic) [Compound 2-02]	MIC50	=	8
CCCCCc1cc(C#N)c(NC[C@](O)(Cn2cncn2)c2ccc(F)cc2F)s1 [Compound 1a-04]	MIC50	=	4
CCCCc1cc(C#N)c(NC[C@](O)(Cn2cncn2)c2ccc(F)cc2F)s1 [Compound 1a-03]	MIC50	=	4
CCCc1cc(C#N)c(NC[C@@](O)(Cn2cncn2)c2ccc(F)cc2F)s1 [Compound 1b-02]	MIC50	>	8
Cc1cc(C#N)c(NCC(O)(Cn2cncn2)c2ccc(F)cc2F)s1 (racemic) [Compound 2-01]	MIC50	=	64
CCCc1cc(C#N)c(NC[C@](O)(Cn2cncn2)c2ccc(F)cc2F)s1 [Compound 1a-02]	MIC50	=	8
CCCCc1cc(C#N)c(NCC(O)(Cn2cncn2)c2ccc(F)cc2F)s1 (racemic) [Compound 2-03]	MIC50	=	8
